Cited source for all entries: patent US9512059B2

Tested on: bed bugs
protocol-notes: forced exposure toxicity test on treated filter paper circles
Assay type: in vivo, Cimex species
condition-summary: compound diluted 5% in acetone, bed bug mortality at 24 hours
Listed below: Mortality @ 24 hours values for each entry.
readout-label: Mortality @ 24 hours

INSERT INTO measurements (compound, measurement) VALUES
  ('CCCC1CC(C)=CC(O)C1 (centres unmarked)', '60%'),
  ('CCCCC1CC(=O)C=C(C)C1 (centres unmarked)', '50%'),
  ('CCCC1CC(=O)C=C(C)C1 (centres unmarked)', '100%'),
  ('CC1=CC(O)CC(CC(C)C)C1 (centres unmarked)', '10%'),
  ('CCC1CC(=O)C=C(C)C1 (centres unmarked)', '78%');
